system: S. aureus; test: Minimal inhibitory concentration (MIC), broth microdilution; assay type: cell-based, Staphylococcus aureus; conditions: Staphylococcus aureus, S. aureus BF2; read-out: Minimum inhibitory concentration
Quantity: MIC (µg/mL)
One number for each entry, in µg/mL.

Completed entries (count: 2):
Look up MIC: O=C(O)/C=C/c1ccc(-c2ccc(O)c(C34CC5CC(CC(C5)C3)C4)c2)cc1 [Adarotene]
2

Look up MIC: O=C(O)c1ccc(-c2ccc3cc(O)c(C45CC6CC(CC(C6)C4)C5)cc3c2)cc1 [CD1530]
1

Now examine the next entry.
Look up MIC: O=C(O)c1ccc2cc(-c3ccc(O)c(C45CC6CC(CC(C6)C4)C5)c3)ccc2c1 [CD437]
1
